# TARGET SYSTEM: T1, Human PD-1-His protein (Cat. #10377H08H, Sino Biological) (human, UniProt Q15116 25-167)
# T1 construct: Bought protein; also called hPD-1-His; hu PD-1-his; not shown: His tag of the bought protein
# T1 sequence (Q15116 25-167 limits assumed): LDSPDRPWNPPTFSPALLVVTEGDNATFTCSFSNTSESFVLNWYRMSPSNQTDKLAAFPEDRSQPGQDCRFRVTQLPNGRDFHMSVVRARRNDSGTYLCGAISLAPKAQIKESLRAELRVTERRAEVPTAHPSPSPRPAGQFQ
# PROTOCOL DETAILS: SPR (Biacore), antibody captured on Protein A chip, PD-1 in flow
# Text: IgG was affinity captured by using a Protein A biosensor chip (Cat. #29127556, GE). Human PD-1 antigen (Cat. #10377H08H, Sino Biological) and Cyno PD-1 antigen (purchased from Sino Biological) flowed across the surface of the chip, and the binding and dissociation curves were obtained by real time detection of PD-1 antibody and antigen PD-1 reaction signals by a Biacore T200 instrument. […]
QUANTITY MEASURED: koff (s⁻¹)
Give the value, in units of s⁻¹, as a plain number.

**Query** Request the reported koff associated with Hu32a-71.IgG4AA (antibody, V domains shown, Full-length IgG4-AA, kappa) VH: EVQLVQSGAEVKKPGSSVKVSCKASDFTFTDYEIHWVRQAPGQGLEWIGLFDPETGGIVYNQKFKGRATLTADKSTSTAYMEFSSLRSEDTAVYYCTREGYNRDWYFDVWGQGTTVTVSS VL: DIVMTQTPLSLPVTPGEPASISCRSSQSLVHSTGNTYLEWYLQKPGQSPQLLIYKVSNRFSGVPDRFSGSGSGTDFTLKISRVEAEDVGVYYCFQGSHVPYTFGGGTKVEIKR
**Result** 0.000396

Ref: patent US20220098304A1
